Assignment: determine reported pKi for the given molecules.
Target: Transmembrane protease serine 6 (Homo sapiens)
Sequence (Q8IU80 whole entry): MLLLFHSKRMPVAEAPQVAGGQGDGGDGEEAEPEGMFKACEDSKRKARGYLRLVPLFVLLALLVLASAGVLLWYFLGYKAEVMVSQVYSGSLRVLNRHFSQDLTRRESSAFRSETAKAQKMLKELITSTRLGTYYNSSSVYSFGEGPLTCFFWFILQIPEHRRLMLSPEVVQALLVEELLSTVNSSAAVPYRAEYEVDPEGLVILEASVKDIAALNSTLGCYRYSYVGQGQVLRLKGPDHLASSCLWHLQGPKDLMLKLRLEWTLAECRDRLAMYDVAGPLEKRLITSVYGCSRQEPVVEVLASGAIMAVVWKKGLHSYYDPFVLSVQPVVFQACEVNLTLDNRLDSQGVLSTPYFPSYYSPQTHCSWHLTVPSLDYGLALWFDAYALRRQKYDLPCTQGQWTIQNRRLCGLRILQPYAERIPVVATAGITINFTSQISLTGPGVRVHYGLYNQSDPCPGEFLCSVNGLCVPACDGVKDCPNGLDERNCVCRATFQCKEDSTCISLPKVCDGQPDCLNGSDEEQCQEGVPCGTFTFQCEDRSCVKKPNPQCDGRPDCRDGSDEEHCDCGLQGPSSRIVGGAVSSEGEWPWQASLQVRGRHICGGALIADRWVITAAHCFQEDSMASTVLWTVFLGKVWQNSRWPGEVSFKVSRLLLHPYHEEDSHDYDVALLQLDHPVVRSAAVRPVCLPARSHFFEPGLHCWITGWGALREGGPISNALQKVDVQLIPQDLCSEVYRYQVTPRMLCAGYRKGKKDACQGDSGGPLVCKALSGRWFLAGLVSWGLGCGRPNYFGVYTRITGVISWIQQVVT
Assay: Inhibition of recombinant human C-terminal V5-His-tagged matriptase-2 expressed in Drosophila S2 cells using Boc-Gln-Ala-ArgAMC as substrate measured for 1200 mins by fluorescence assay
Would you please state pKi, meaning minus log10 of the concentration in mol/L, as a bare number?

Reported pKi for `CC[C@@H](C)[C@@H](NC(=O)[C@H](CCc1ccccc1)NC(=O)CCc1ccccc1)C(=O)N[C@@H](CCCNC(=N)N)C(=O)c1nc2ccccc2s1` : what is it? 8.30

Data request, read-out pKi, for `CC(C)[C@H](NC(=O)[C@H](CCc1ccccc1)NC(=O)CCc1ccccc1)C(=O)N[C@@H](CCCNC(=N)N)C(=O)c1nc2ccccc2s1` 8.68

Request the reported pKi associated with N=C(N)NCCC[C@H](NC(=O)[C@H](Cc1ccc(O)cc1)NC(=O)C(Cc1ccc(O)cc1)NC(=O)[C@@H](N)Cc1ccc(O)cc1)C(=O)c1nc2ccccc2s1 (single isomer, unassigned) 8.96
